variants and their reported protein stability index
B1: CLCN6 (parent)
chain: VGEIVGIITRHNLTYEFLQARLRQ

- Variants of: B1
- procedure_text: protein stability index of a GFP-peptide fusion (GPS, HEK-293T) (PSI 1-6); higher = more stable;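 also: lentivirally expressed fusions sorted by FACS into six bins by GFP to DsRed ratio, PSI derived from sequencing read proportions per bin multiplied by bin number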
- measurement_conditions: c terminus: a fixed tail appended
measured_parameter: protein stability index

[[record]]
variant_notation = "Q24Y"
measured = 2.14

[[record]]
variant_notation = "T14Y"
measured = 3.07

[[record]]
variant_notation = "I7N"
measured = 2.18

[[record]]
variant_notation = "E16K"
measured = 1.52

[[record]]
variant_notation = "E3A"
measured = 2.59

[[record]]
variant_notation = "G2P"
measured = 1.86

[[record]]
variant_notation = "Q24E"
measured = 3.09

[[record]]
variant_notation = "F17Q"
measured = 2.76

[[record]]
variant_notation = "E3Y"
measured = 3.28

[[record]]
variant_notation = "L13P"
measured = 1.94

